test system: human hepatocytes; test: Evaluation of hepatocyte clearance (metabolic stability); assay type: in vitro ADME; details: 1 μM test compound, 5% human serum, Table 3
Note to self: values exactly at 30% are class 1. So Qh [%] at or above 30% is class 1, below is class 0.

### Prompt Check if Qh [%] >= 30% (inclusive). Item: O=c1c2scnc2nc(SCc2ccc(C(F)(F)F)cc2F)n1-c1cnc(O)c(F)c1 [Example 42]
### Response class 0

### Prompt Could you please find out whether O=c1c2scnc2nc(SCc2c(F)cc(F)cc2F)n1-c1cnc(O)cn1 [Example 69] has Qh [%] that meets 30% or exceeds it?
### Response class 0

### Prompt Threshold query (Qh [%] >= 30%) on Cc1cc(Cl)ccc1CSc1nc2ncsc2c(=O)n1-c1cnc(O)nc1 [Example 54]
### Response class 1

### Prompt Check the entry Cc1cc(F)cc(C)c1CSc1nc2ncsc2c(=O)n1-c1cc(F)c(O)c(F)c1 [Example 4] : does Qh [%] equal or exceed 30%?
### Response class 1

### Prompt # bool: Qh [%] of O=c1c2scnc2nc(SCc2ccc(C(F)(F)F)cc2F)n1-c1ccc(O)nc1 [Example 26] >= 30%
### Response class 1

### Prompt Confirm if Qh [%] reported for the molecule Cc1cc(F)ccc1CSc1nc2ncsc2c(=O)n1-c1cc(F)c(O)c(F)c1 [Example 9] is 30% or above.
### Response class 1

### Prompt In plain terms: is recorded Qh [%] at least 30% for O=c1c2scnc2nc(SCc2ccc(Br)cc2F)n1-c1cnc(O)c(F)c1 [Example 34] ?
### Response class 0

### Prompt Please tell me: is the molecule O=c1c2scnc2nc(SCc2ccc(Cl)cc2)n1-c1cnc(O)c(F)c1 [Example 33] at or over 30% in terms of Qh [%]?
### Response class 0

### Prompt I'd appreciate it if you could say whether O=c1c2scnc2nc(SCc2c(F)cc(F)cc2F)n1-c1ccc(O)cc1 [Example 15] has Qh [%] at least equal to 30%.
### Response class 1

### Prompt Hello, I need to know if O=c1c2scnc2nc(SCc2ccc(Cl)cc2F)n1-c1ccc(O)nn1 [Example 61] has measured Qh [%] not below 30%. Thanks!
### Response class 1

### Prompt Hi team, for O=c1c2scnc2nc(SCc2c(F)cc(F)cc2F)n1-c1cc(F)c(O)nc1F [Example 51] , is the recorded Qh [%] at or above 30%?
### Response class 0

###

biological target: human NOX5 (hNOX5) (Homo sapiens); construct: expressed in transfected cells; host or cells: HEK293; test: NOX5 inhibition assay (L-012), HEK293 cells stably overexpressing human NOX5; format: cell-based; details: HEK293-hNOX5, PMA stimulated
Sequence (Q96PH1 whole entry): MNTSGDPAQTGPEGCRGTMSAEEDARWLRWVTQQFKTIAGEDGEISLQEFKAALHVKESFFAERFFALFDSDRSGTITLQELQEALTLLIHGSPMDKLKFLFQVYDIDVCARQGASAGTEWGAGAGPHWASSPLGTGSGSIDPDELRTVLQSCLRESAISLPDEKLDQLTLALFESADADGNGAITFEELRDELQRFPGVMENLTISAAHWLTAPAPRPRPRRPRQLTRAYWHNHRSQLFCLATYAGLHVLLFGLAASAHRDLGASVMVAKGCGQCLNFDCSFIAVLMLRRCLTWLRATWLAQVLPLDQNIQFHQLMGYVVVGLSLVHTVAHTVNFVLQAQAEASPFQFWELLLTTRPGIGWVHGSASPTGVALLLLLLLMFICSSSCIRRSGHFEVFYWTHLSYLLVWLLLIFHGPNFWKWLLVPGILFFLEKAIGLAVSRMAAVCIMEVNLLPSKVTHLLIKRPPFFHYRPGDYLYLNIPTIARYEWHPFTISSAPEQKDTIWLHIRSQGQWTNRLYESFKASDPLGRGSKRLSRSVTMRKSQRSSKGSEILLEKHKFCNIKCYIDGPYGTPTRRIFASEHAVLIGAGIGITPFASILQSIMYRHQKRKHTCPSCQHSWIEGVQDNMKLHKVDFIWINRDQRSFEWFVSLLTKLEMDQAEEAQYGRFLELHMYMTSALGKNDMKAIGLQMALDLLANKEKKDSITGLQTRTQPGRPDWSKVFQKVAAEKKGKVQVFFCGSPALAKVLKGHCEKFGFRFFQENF
I'd appreciate it if you could supply IC50 values for the items below.

### Prompt I have this compound here, O=c1c2scnc2nc(SCc2ccc(Cl)cc2F)n1-c1ccc(O)nc1 [Example 22] , and I need its recorded IC50.
### Response > 100 µM

### Prompt Recorded IC50 for O=c1c2scnc2nc(SCc2ccc(Cl)cc2)n1-c1cnc(O)c(F)c1 [Example 33] , please?
### Response > 100 µM

### Prompt Any idea what IC50 was measured for O=c1c2scnc2nc(SCc2ccc(Cl)cc2F)n1-c1cc(F)c(O)c(F)c1 [Example 2] ?
### Response > 100 µM

###

Can you tell me IC50 for the items I'm about to list?
target: human NOX1 (hNOX1) (Homo sapiens, UniProt Q9Y5S8); construct: pLV-CMV-hNOX1-puro (NM_007052.5); assay: NOX1 inhibition assay (L-012), HEK293 cells stably overexpressing human NOX1; settings: HEK293-hNOX1, PMA stimulated
Sequence (Q9Y5S8 whole entry): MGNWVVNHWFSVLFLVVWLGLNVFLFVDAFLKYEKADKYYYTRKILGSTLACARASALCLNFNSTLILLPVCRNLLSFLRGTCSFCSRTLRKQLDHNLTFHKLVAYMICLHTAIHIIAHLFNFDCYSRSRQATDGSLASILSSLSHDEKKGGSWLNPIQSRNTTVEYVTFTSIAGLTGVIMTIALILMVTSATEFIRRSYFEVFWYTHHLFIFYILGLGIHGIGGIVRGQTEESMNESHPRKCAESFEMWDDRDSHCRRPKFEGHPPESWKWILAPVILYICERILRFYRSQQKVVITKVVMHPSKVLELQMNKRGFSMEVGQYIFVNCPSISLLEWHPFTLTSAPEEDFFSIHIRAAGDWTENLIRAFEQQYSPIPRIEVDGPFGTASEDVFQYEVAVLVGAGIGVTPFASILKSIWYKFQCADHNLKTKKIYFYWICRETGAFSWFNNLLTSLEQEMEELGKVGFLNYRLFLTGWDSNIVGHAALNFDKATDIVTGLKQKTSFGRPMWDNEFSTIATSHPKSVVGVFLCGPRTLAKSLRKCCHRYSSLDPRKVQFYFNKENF
Sequence (P13498 2-195 partner limits assumed): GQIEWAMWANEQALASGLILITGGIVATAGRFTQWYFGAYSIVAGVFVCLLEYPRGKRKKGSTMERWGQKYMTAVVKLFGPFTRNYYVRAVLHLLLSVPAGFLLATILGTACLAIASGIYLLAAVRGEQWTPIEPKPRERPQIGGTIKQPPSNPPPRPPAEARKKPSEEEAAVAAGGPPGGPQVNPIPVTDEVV

### Prompt I am curious: what IC50 value has been reported for O=c1c2scnc2nc(SCc2ccc(Cl)cc2)n1-c1ccc(O)nn1 [Example 64] ?
### Response > 100 µM

### Prompt // returns reported IC50 for input O=c1c2scnc2nc(SCc2ccc(C(F)(F)F)cc2F)n1-c1cc(F)c(O)c(F)c1 [Example 6]
### Response > 100 µM

### Prompt Look at this compound and give its reported IC50. O=c1c2scnc2nc(SCc2ccc(Cl)cc2F)n1-c1ccc(O)nn1 [Example 61]
### Response > 100 µM

###

molecular target: human NOX1 (hNOX1) (Homo sapiens); construct: pLV-CMV-hNOX1-puro (NM_007052.5); experiment: NOX1 inhibition assay (L-012), HEK293 cells stably overexpressing human NOX1; conditions: HEK293-hNOX1, PMA stimulated
ATTRIBUTE MEASURED: pIC50
The scale used: pIC50 is minus the common logarithm of the concentration in molar units.

### Prompt # pIC50 lookup, item `O=c1c2scnc2nc(SCc2ccc(C(F)(F)F)cc2)n1-c1ccc(O)nc1`
### Response 4.12

### Prompt Record request: pIC50 value, item `O=c1c2scnc2nc(SCc2c(F)cc(F)cc2F)n1-c1cc(F)c(O)c(F)c1`
### Response 5.96

### Prompt Please give the measured pIC50 for this compound: `O=c1c2scnc2nc(SCc2c(F)cc(F)cc2F)n1-c1cnc(O)c(F)c1`
### Response 4.64

### Prompt Record request: pIC50 value, item `O=c1c2scnc2nc(SCc2ccc(C(F)(F)F)cc2F)n1-c1ccc(O)nc1`
### Response 4.48

### Prompt Entry `O=c1c2scnc2nc(SCc2c(F)cc(F)cc2F)n1-c1ccc(O)nc1F` has what pIC50?
### Response 4.56

### Prompt Recorded pIC50 for `O=c1c2scnc2nc(SCc2ccc(Cl)cc2)n1-c1cc(F)c(O)c(F)c1` , please?
### Response 6.52

### Prompt What value of pIC50 has been reported for the following compound? `O=c1c2scnc2nc(SCc2c(F)cc(F)cc2F)n1-c1cc(F)c(O)nc1F`
### Response 5.52

### Prompt Given the entry `O=c1c2scnc2nc(SCc2ccc(Cl)cc2)n1-c1cnc(O)c(F)c1` , report its measured pIC50.
### Response 4.45

### Prompt Given the compound `Cc1cc(F)ccc1CSc1nc2ncsc2c(=O)n1-c1ccc(O)nc1` , what is its reported pIC50?
### Response 4.48

### Prompt Requested read-out: pIC50. Entry: `O=c1c2scnc2nc(SCc2c(F)cc(F)cc2F)n1-c1ccc(O)cc1`
### Response 5.39

### Prompt So what does the record say about pIC50 for `O=c1c2scnc2nc(SCc2c(F)cc(F)cc2F)n1-c1ccc(O)cc1Cl` ?
### Response 4.84

### Prompt If you can, please state the reported pIC50 value of `Cc1cc(F)cc(C)c1CSc1nc2ncsc2c(=O)n1-c1ccc(O)nn1` .
### Response 4.36

### Prompt # get_value(readout='pIC50', item= `Cc1cc(F)ccc1CSc1nc2ncsc2c(=O)n1-c1cc(F)c(O)c(F)c1` )
### Response 5.72

### Prompt Name the recorded pIC50 for `O=c1c2scnc2nc(SCc2c(F)cc(F)cc2F)n1-c1cnc(O)c(Cl)c1` .
### Response 4.44

###

Exercise: state measured IC50 for each of the molecules provided.
target: human NOX1 (hNOX1) (Homo sapiens); construct: pLV-CMV-hNOX1-puro (NM_007052.5); assay: NOX1 inhibition assay (L-012), HEK293 cells stably overexpressing human NOX1; conditions: HEK293-hNOX1, PMA stimulated

### Prompt Value lookup for IC50; key = `O=c1c2scnc2nc(SCc2ccc(Cl)cc2F)n1-c1ccc(O)nc1`
### Response > 100 µM

### Prompt Value lookup for IC50; key = `O=c1c2scnc2nc(SCc2c(F)cc(F)cc2F)n1-c1ncc(O)cn1`
### Response > 100 µM

### Prompt Which IC50 is reported for this molecule? `O=c1c2scnc2nc(SCc2ccc(C(F)(F)F)cc2)n1-c1cnc(O)nc1`
### Response > 100 µM

### Prompt Please give the measured IC50 for this molecule: `Cc1cc(F)cc(C)c1CSc1nc2ncsc2c(=O)n1-c1cnc(O)c(F)c1`
### Response > 100 µM

### Prompt # input molecule: `O=c1c2scnc2nc(SCc2c(F)cc(F)cc2F)n1-c1cnc(O)cn1` ; wanted: its IC50
### Response > 100 µM

### Prompt Which IC50 value belongs to `Cc1cc(Cl)ccc1CSc1nc2ncsc2c(=O)n1-c1ccc(O)nn1` ?
### Response > 100 µM

### Prompt Data request, read-out IC50, for `O=c1c2scnc2nc(SCc2c(F)cc(F)cc2F)n1-c1cnc(O)c(F)c1F`
### Response 21.2 µM

### Prompt Entry `Cc1cc(F)cc(C)c1CSc1nc2ncsc2c(=O)n1-c1cnc(O)nc1` : reported IC50 = ?
### Response 16.5 µM

###

tested on: human hepatocytes; experiment: Evaluation of hepatocyte clearance (metabolic stability); type: in vitro ADME; details: 1 μM test compound, 5% human serum, Table 3
ATTRIBUTE MEASURED: Qh [%] (%)
# unit: % | format: bare number

### Prompt Form field: reported Qh [%] of O=c1c2scnc2nc(SCc2c(F)cc(F)cc2Cl)n1-c1cnc(O)c(F)c1 [Example 41]
### Response 26

### Prompt Look at this molecule and give its reported Qh [%]. O=c1c2scnc2nc(SCc2ccc(C(F)(F)F)cc2)n1-c1cc(F)c(O)c(F)c1 [Example 7]
### Response 55

### Prompt Item Cc1cc(Cl)ccc1CSc1nc2ncsc2c(=O)n1-c1cnc(O)c(F)c1 [Example 37] has what recorded Qh [%]?
### Response 16

### Prompt Any idea what Qh [%] was measured for O=c1c2scnc2nc(SCc2ccc(Cl)cc2)n1-c1ccc(O)nn1 [Example 64] ?
### Response 47
